- System: IGROV-1
- measurement-description: NCI tumour cell line growth inhibition, 48 h
Activity calls are given as the source filed them. No stated cut-off is given here; in the data, active = GI50 up to about 1.1 µM and inactive = higher.
GI50 for assorted molecules

{"molecule": "CCNC(=O)/C=C/CCC#Cc1ccc(-c2ccc(-c3cccs3)s2)s1", "target-or-test-system": "IGROV-1", "result": "> 100 µM (inactive)"}
{"molecule": "CC(C)(C)OC(=O)C1CCC/C1=N/Nc1ccc([N+](=O)[O-])cc1[N+](=O)[O-] (stereo not drawn)", "target-or-test-system": "IGROV-1", "result": "25.5 µM (inactive)"}

So for CN(C)/C=N/[C@@H](C(=O)O)c1ccccc1 , the logged GI50 turned out to be > 100 µM (inactive)
